- Protocol text: Example 1: bleaching of shading dyes in pH=10 buffer by catalyst AC and hydrogen peroxide, from optical density
- Applied conditions: (b) 4 micromolar AC, 4 millimolar hydrogen peroxide, after 30 minutes at 20 °C
Reported metric: % bleaching (b) (%)
Numbers only, in %.

The following molecules have reported results that may help.
* Nc1c(S(=O)(=O)[O-])cc(Nc2ccccc2)c2c1C(=O)c1ccccc1C2=O.[Na+] | 96
* Nc1c(N=Nc2ccc([N+](=O)[O-])cc2)c(S(=O)(=O)[O-])cc2cc(S(=O)(=O)[O-])c(N=Nc3ccccc3)c(O)c12.[Na+].[Na+] | 53
* COc1cc(N=Nc2c(C)cc(C)cc2S(=O)(=O)[O-])c(C)cc1N=Nc1c(S(=O)(=O)[O-])cc2cc(Nc3ccccc3)ccc2c1O.[Na+].[Na+] | 29

Would you kindly look at the next entry?
Query: Which % bleaching (b) is reported for this molecule? `O=S(=O)([O-])c1cccc(N=Nc2ccc(N=Nc3ccc(Nc4ccccc4)c4c(S(=O)(=O)[O-])cccc34)c3ccccc23)c1.[Na+].[Na+]`
Result: 99

Value source: patent EP2228429A1
